Kindly state MOR agonist activity ([35S]GTPγS binding), FLNA-Binding Compound as Agonist 1 μM + BFNA for each of the entries shown.
- System: mu opiate receptor (MOR)
- protocol: MOR agonist activity using [35S]GTPγS binding assay in striatal membranes
- Format: biochemical
- run-conditions: 1 μM compound + 1 μM β-funaltrexamine

Please review the following examples before continuing.
- compound: "CC1CN(CC(O)COc2ccccc2C(C)C)CC(C)O1 (stereo not shown)"
  result: "22.3%"
- compound: "CC1CCC(C(C)C)C(OCC(CN2CC(C)OC(C)C2)NCc2ccccc2)C1 (stereo not shown)"
  result: "118.2%"
- compound: "COc1ccc(OCC(O)CN2CCCc3ccccc32)cc1 (stereo not shown)"
  result: "33.9%"

I would be grateful if you could provide MOR agonist activity ([35S]GTPγS binding), FLNA-Binding Compound as Agonist 1 μM + BFNA for each of the following entries.
1. COc1ccc(OCC(O)CN2CCc3ccccc3C2)cc1 (stereo not shown)
2. COc1ccc(OCC(O)CN2CCc3cc4c(c(OC)c3C2)OCO4)cc1 (stereo not shown)

# output
["15.1%", "80.3%"]

---

- system-tested: FLNA pentapeptide of SEQ ID NO: 1 (Bn-VAKGL) (Homo sapiens)
- protocol: FITC-NLX-based FLNA screening assay (inhibition of FITC-naloxone binding to Bn-VAKGL on streptavidin plates)
- run-conditions: read-out: Percent Binding Inhibition, FLNA-binding compound 0.1 μM; 10 nM FITC-NLX
Kindly state inhibition at 0.1 µM for each of the entries shown.
Numbers only, in %.

Please review the following examples before continuing.
- compound: "CC1CCC(C(C)C)C(OCC(O)Cn2ccc3ccccc32)C1 (centres unmarked)"
  output-unit: "%"
  quantitative-readout: 55.8
- compound: "COc1ccc(C(=O)CC2c3c(cc4c(c3OC)OCO4)CC[N+]2(C)C)cc1OC (centres unmarked)"
  output-unit: "%"
  quantitative-readout: 43.3
- compound: "COc1ccc(CCC(=O)CC2c3c(cc4c(c3OC)OCO4)CC[N+]2(C)C)c(OC)c1 (centres unmarked)"
  output-unit: "%"
  quantitative-readout: 39.2
- compound: "CC(=O)c1ccc(S(=O)(=O)N2CCC3(CC2)OC(CN(C)C)CN3S(=O)(=O)c2ccc(C(C)=O)cc2)cc1 (centres unmarked)"
  output-unit: "%"
  quantitative-readout: 44

I would be grateful if you could provide inhibition at 0.1 µM for each of the following entries.
1. COc1ccc(C(=O)CC2c3c(cc4c(c3OC)OCO4)CC[N+]2(C)C)cc1C (centres unmarked)
2. COCOc1ccc(C(=O)CC2c3c(cc4c(c3OC)OCO4)CC[N+]2(C)C)cc1C (centres unmarked)
3. O=S(=O)(c1cccs1)N1CCC2(CC1)OCCN2S(=O)(=O)c1cccs1 [Compound C0141M]

# output
1: 43.1; 2: 46.8; 3: 39

# input Consider the compound C=CCN1CCC2(CC1)OCCN2S(=O)(=O)c1ccc(OC)cc1 [Compound C0091M] and give its recorded inhibition at 0.1 µM.
# output 39.8

---

- Test system: mu opiate receptor (MOR)
- protocol: MOR agonist activity using [35S]GTPγS binding assay in striatal membranes
- Type: biochemical
- run-conditions: Series C-2; 1 μM compound + β-FNA, relative to DAMGO + BFNA
Tag: criterion met if measured % DAMGO + BFNA is not below 300%, criterion not met if it is.

Worked examples, 3 compounds total:
- compound: "CC(=O)c1ccc(S(=O)(=O)N2CCOC23CCN(C)CC3)cc1 [Compound C0093M]"
  cat: "criterion not met"
- compound: "CC(=O)c1ccc(S(=O)(=O)N2CCOC23CCN(CC2CC2)CC3)cc1 [Compound C0095M]"
  cat: "criterion met"
- compound: "COc1ccc(S(=O)(=O)N2CCSC23CCNCC3)cc1"
  cat: "criterion not met"

# input Reported % DAMGO + BFNA reaches at least 300% for CCN1CCC2(CC1)OCCN2S(=O)(=O)c1ccc(C(C)=O)cc1 [Compound C0094M] ?
# output criterion met

# input Reported % DAMGO + BFNA reaches at least 300% for COc1ccc(S(=O)(=O)N2CCC3(CC2)NCCC(=O)N3)cc1 [Compound C0142M] ?
# output criterion not met
